Measured values drawn from paper PMC7340446 for this set.

# ASSAYED TARGET: human PTHR1 (RG conformation) (Homo sapiens)
# Construct: expressed in transfected cells; host or cells: COS-7 cells (transient co-transfection; membranes)
# Sequence (Q03431 27-593): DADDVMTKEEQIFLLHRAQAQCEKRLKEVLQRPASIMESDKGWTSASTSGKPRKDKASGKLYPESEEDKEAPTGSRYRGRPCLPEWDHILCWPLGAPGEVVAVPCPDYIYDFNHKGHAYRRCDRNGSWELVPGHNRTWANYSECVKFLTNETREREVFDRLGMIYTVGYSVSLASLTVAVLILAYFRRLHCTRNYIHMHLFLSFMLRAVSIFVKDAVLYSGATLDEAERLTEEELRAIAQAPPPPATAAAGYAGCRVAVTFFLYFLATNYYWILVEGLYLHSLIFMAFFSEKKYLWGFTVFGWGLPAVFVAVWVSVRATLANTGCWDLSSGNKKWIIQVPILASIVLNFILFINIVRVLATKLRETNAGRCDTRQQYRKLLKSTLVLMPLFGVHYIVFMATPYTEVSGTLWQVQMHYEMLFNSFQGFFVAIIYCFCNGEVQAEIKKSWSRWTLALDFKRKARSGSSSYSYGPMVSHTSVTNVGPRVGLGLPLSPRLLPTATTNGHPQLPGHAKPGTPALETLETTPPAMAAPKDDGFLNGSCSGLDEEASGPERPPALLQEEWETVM
# PROCEDURE DETAILS: Competition binding to the RG conformation of PTHR1
Where no end group is shown, it is not given here.
RESULT TYPE: IC50 (nM)

a. AVAEIQLMHQRAKWLNSMERVEFLHHLIAEIHTAEI [M‐PTH(1‐22)/PTHrP(23‐36)]
b. AVAEIQLMHQRAKWLNSMERVEWLRKLIAEIHTAEI [M‐PTH(1‐26)/PTHrP(27‐36)]
# query: argmin of IC50 over a and b Return value: the label identifying the chosen record.
b
(b: 0.13 nM, a: 0.67 nM)
